Target Or System: SMAD2
Measurement Conditions: ASO; also: test concentration or dose not given here
These antisense oligonucleotides have a phosphorothioate backbone; sugars and methylation of C are not fully specified.
Readout Name: remaining target (mRNA or protein) (fraction of control)

# Sequence Text, Observed Measurement
measured = [
    ("CTAATCGTCCTGTTTTCT", 0.33),
    ("AAAGCCATCTACAGTGAG", 0.34),
    ("GATAGTAAACAGTCCATA", 0.5),
    ("TCTCTGATAGTGGTAAGG", 0.49),
    ("AGCTGCTTCTCCGCCGCC", 0.27),
    ("CCTTCTTGTCATTTCTAC", 0.57),
    ("CTTCCATCCCAGCAGTCT", 0.1),
    ("AAGTGCTTGGTATGGTAA", 0.43),
    ("CTCTCCTCCGCCTGCTCC", 0.01),
    ("TGCTCCTCCAGACCCACC", 0.01),
    ("GGCAAAACTGGTGTCTCA", 0.26),
    ("AAACAGCCTCTTGTATCG", 0.29),
    ("GAGGTGGCGTTTCTGGAA", 0.29),
    ("CTCACACCACTTTTCTTC", 0.1),
    ("CTGAGCCAGAAGAGCAGC", 0.18),
    ("TAACATTGGAGAGTAAAC", 0.54),
    ("TCACTGCTTTCTCACACC", 0.08),
]

---

Target Or System: GNA11
Measurement Conditions: ASO
These antisense oligonucleotides have a phosphorothioate backbone; sugars and methylation of C are not fully specified.
Readout Name: remaining target (mRNA or protein) (fraction of control)

# Sequence Text, Value Operator, Observed Measurement
measured = [
    ("ATCTGCTTGATGAACGTG", "≥", 1),
    ("CGGATCATGGCCTGCATG", "=", 0.99),
    ("CTCCACGTCCACCTCCCG", "=", 0.31),
    ("CACGCCATGATGGACTCC", "≥", 1),
    ("AGATGATGTTCTCCAGGT", "≥", 1),
    ("CTCCGCTCCGACCGCTGG", "=", 0.44),
    ("GCAGGTAGCCCAAGGTGG", "=", 0.8),
    ("GTAGATGATCTTGTCGCT", "≥", 1),
    ("CAGGGTCTTGATGGCACT", "≥", 1),
    ("ATGTTCTCCGTGTCGGTG", "≥", 1),
    ("GGAGGAGTTCTGGAACCA", "=", 0.36),
    ("GCTGAGGGCGACGAGAAA", "=", 0.25),
    ("ACGGCCGCGAACACGAAG", "=", 0.94),
    ("CAGGAGCGCATTGGCCTT", "≥", 1),
    ("TGTCACGTTCTCAAAGCA", "≥", 1),
    ("CGACTCCACCAGGACTTG", "=", 0.6),
    ("CGAGAAACATGATGGATG", "≥", 1),
    ("GATGGACTCCAGAGTCAT", "≥", 1),
    ("GTGGCGATGCGGTCAACG", "=", 0.99),
    ("ACCAGATTGTACTCCTTC", "≥", 1),
    ("TGGCGGTGAAGATGTTCT", "≥", 1),
    ("CGCATCTGCTTGATGAAC", "≥", 1),
    ("GATGCTCGAAGGTGGTCA", "=", 0.67),
    ("ATCTTGTCCTCCAGCAGG", "=", 0.96),
    ("ACTGACGTACTGATGCTC", "=", 0.64),
    ("ATCCGGTTCTCGTTGTCC", "=", 0.78),
    ("CTTGTCCTCCTCCGAGTA", "=", 0.21),
    ("CGTTGATCCGCTTGGACT", "≥", 1),
    ("CTCATCGCTCAGGCAACA", "=", 0.39),
    ("GCGAGTACAGGATCTTGT", "=", 0.83),
    ("CGTCTCCATGGCCCGGAT", "=", 0.51),
    ("TCCTGGATGCCCGGGTCC", "=", 0.7),
    ("GTCAGGTAGTACTTGGCA", "=", 0.24),
    ("TCAGGTTCAGCTGCAGGA", "=", 0.97),
    ("CTTCACCTCATCGCTCAG", "=", 0.8),
    ("TAGACGAGCTTGGTGAAG", "≥", 1),
    ("ACGTGCTCTTCCCGCTCT", "=", 0.72),
    ("GGTGGTGGGCACGCGGAC", "≥", 1),
    ("GGTCACCTTCTCCACGTC", "=", 0.73),
    ("CGCCTGCGGTCGTAGCAT", "≥", 1),
    ("GCCATGATGGACTCCAGA", "=", 0.25),
    ("AAGCCGCGCTTGTCCTCC", "=", 0.44),
    ("AGGGCTTTGCTCTCCTCC", "=", 0.23),
    ("TACTTGGCAGAGTCGGAG", "=", 0.66),
    ("CCATCCGGTTCTCGTTGT", "=", 0.81),
    ("GCCCGTGCCGAGCAGCAG", "≥", 1),
    ("GATCCACTTCCTCCGCTC", "=", 0.41),
    ("CCAGGTCGAAAGGGTACT", "≥", 1),
    ("CCCGCCGCAGCTGCTTCT", "=", 0.42),
    ("CGTCCTGCTGGGTGGGCA", "=", 0.6),
    ("ATGATGGATGTCACGTTC", "≥", 1),
    ("TGTTCTCCAGGTCGAAAG", "=", 0.67),
    ("GCAGGTCCTTCTTGTTGA", "=", 0.94),
    ("GATGGTGTCCTTCACGGC", "≥", 1),
    ("GTAGGTGATGATGGTCCG", "≥", 1),
    ("CTTGATGGCACTGACGTA", "=", 0.22),
    ("TTGGCCTTGTTCTGCTCG", "≥", 1),
    ("TGTTCTGGTAGACGAGCT", "≥", 1),
    ("ATCCGGAAGATGATGTTC", "≥", 1),
    ("GCCTTGTTCTGCTCGTAC", "=", 0.75),
    ("TGTAGAGGATCTTGAGCG", "≥", 1),
    ("TGCTCGTACTTGTAGAGG", "=", 0.93),
    ("ATCCGCTTGGACTCCTTC", "=", 0.83),
    ("GGTCAACGTCGGTCAGGT", "=", 0.82),
    ("GCAGCAGCAGCTTGAGCT", "≥", 1),
    ("GCTGGTACTCGCGCCTGC", "=", 0.59),
    ("CTTGAGCTCGCGCCGGGC", "=", 0.69),
    ("TAGAGGATCTTGAGCGTC", "≥", 1),
    ("TCGATGATGCCGGTGGTG", "≥", 1),
    ("GTAGCCGGCGCCGTGGAT", "=", 0.99),
]

---

Target Or System: PIK3CB
Measurement Conditions: ASO
These antisense oligonucleotides have a phosphorothioate backbone; sugars and methylation of C are not fully specified.
Recorded measurements of remaining target (mRNA or protein) (fraction of control), one per entry
Readout Name: remaining target (mRNA or protein) (fraction of control)

# Sequence Text, Observed Measurement
measured = [
    ("CATATTAGGAGACACTTGAA", "≥ 1"),
    ("TAAGGCAACATCCGAAGATC", 0.96),
    ("TATAAGAAATGGTAGCTTCC", "≥ 1"),
    ("TGTAATATTATGTCTCCAGT", 0.9),
    ("GATGTCTGCCATAGCAGGAG", "≥ 1"),
    ("ATGCAAACATATAGGAGTCA", "≥ 1"),
    ("GATCCTTCAAGGAATCAAAT", 0.91),
    ("AAGTTTTCAGGGATGGATGG", "≥ 1"),
    ("TTCCCGAGGTACCTCCAACT", 0.7),
    ("AGTAGCCAGCACAGGACAGT", "≥ 1"),
    ("GGCCAAATCTGAAGCAGCGC", "≥ 1"),
    ("ATTGAGTGCTTCAACCTGCT", "≥ 1"),
    ("CACCGCCCAGATGTCAAGGA", 0.5),
    ("AGGTATGGAGCCATCAGATG", "≥ 1"),
    ("CTTCCCATGAATAGTCAAAC", 0.53),
    ("GTCAATATCCATAAGGAGGT", "≥ 1"),
]
